B1: glmS ribozyme (parent)
chain: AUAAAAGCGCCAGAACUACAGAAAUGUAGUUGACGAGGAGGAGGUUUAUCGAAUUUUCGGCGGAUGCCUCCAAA

Variants of: B1
test-summary: kcat; higher = faster cleavage; RNA array
condition-notes: with glucosamine-6-phosphate
Variants at the floor of the assay were thinned out.
# kcat per record follows

>  <variant-notation>
U30A U49G C70U

>  <relation-operator>
=

>  <kcat, s⁻¹>
0.000102

$$$$
>  <variant-notation>
A12U G13A

>  <relation-operator>
=

>  <kcat, s⁻¹>
0.0015

$$$$
>  <variant-notation>
C11U C58U

>  <relation-operator>
=

>  <kcat, s⁻¹>
3.64e-05

$$$$
>  <variant-notation>
U30C U54C

>  <relation-operator>
=

>  <kcat, s⁻¹>
0.000253

$$$$
>  <variant-notation>
C10A U54A

>  <relation-operator>
<

>  <kcat, s⁻¹>
1e-05

$$$$
>  <variant-notation>
C61U C67A

>  <relation-operator>
=

>  <kcat, s⁻¹>
1.1e-05

$$$$
>  <variant-notation>
C11U U31C A52U

>  <relation-operator>
<

>  <kcat, s⁻¹>
1e-05

$$$$
>  <variant-notation>
U31A G59U

>  <relation-operator>
=

>  <kcat, s⁻¹>
3.57e-05

$$$$
>  <variant-notation>
A39U U69G

>  <relation-operator>
=

>  <kcat, s⁻¹>
6.87e-05

$$$$
>  <variant-notation>
C50A C58G

>  <relation-operator>
<

>  <kcat, s⁻¹>
1e-05

$$$$
>  <variant-notation>
A6C C68G

>  <relation-operator>
<

>  <kcat, s⁻¹>
1e-05

$$$$
>  <variant-notation>
A39U U56C

>  <relation-operator>
=

>  <kcat, s⁻¹>
0.00176

$$$$
>  <variant-notation>
G13A G32A

>  <relation-operator>
=

>  <kcat, s⁻¹>
0.00473

$$$$
>  <variant-notation>
A6G U55G

>  <relation-operator>
=

>  <kcat, s⁻¹>
0.000588

$$$$
>  <variant-notation>
A33C A39G

>  <relation-operator>
=

>  <kcat, s⁻¹>
0.0011

$$$$
>  <variant-notation>
G29U C34G

>  <relation-operator>
<

>  <kcat, s⁻¹>
1e-05

$$$$
>  <variant-notation>
G29U U47C

>  <relation-operator>
=

>  <kcat, s⁻¹>
0.000228

$$$$
>  <variant-notation>
A12G G40U

>  <relation-operator>
=

>  <kcat, s⁻¹>
0.000365

$$$$
>  <variant-notation>
A15C C68U

>  <relation-operator>
=

>  <kcat, s⁻¹>
0.00105

$$$$
>  <variant-notation>
A15U G59A

>  <relation-operator>
=

>  <kcat, s⁻¹>
1.53e-05

$$$$
>  <variant-notation>
C16A G66A

>  <relation-operator>
=

>  <kcat, s⁻¹>
0.00167

$$$$
>  <variant-notation>
A12G C67U

>  <relation-operator>
=

>  <kcat, s⁻¹>
0.000655

$$$$
>  <variant-notation>
A12C U49G

>  <relation-operator>
=

>  <kcat, s⁻¹>
0.000332

$$$$
>  <variant-notation>
U46C U54G

>  <relation-operator>
=

>  <kcat, s⁻¹>
0.00333

$$$$
>  <variant-notation>
A42C G66A

>  <relation-operator>
=

>  <kcat, s⁻¹>
0.000322

$$$$
>  <variant-notation>
A6C U45A

>  <relation-operator>
=

>  <kcat, s⁻¹>
0.000229

$$$$
>  <variant-notation>
A12C U31A

>  <relation-operator>
=

>  <kcat, s⁻¹>
0.0133

$$$$
>  <variant-notation>
C50U U57C

>  <relation-operator>
<

>  <kcat, s⁻¹>
1e-05

$$$$
>  <variant-notation>
G32U A33U

>  <relation-operator>
<

>  <kcat, s⁻¹>
1e-05

$$$$
>  <variant-notation>
A12G A14C

>  <relation-operator>
=

>  <kcat, s⁻¹>
0.000175

$$$$
>  <variant-notation>
A12C C70G

>  <relation-operator>
=

>  <kcat, s⁻¹>
0.000232

$$$$
>  <variant-notation>
G41U C58A

>  <relation-operator>
=

>  <kcat, s⁻¹>
1.21e-05

$$$$
>  <variant-notation>
G32A G37A

>  <relation-operator>
=

>  <kcat, s⁻¹>
0.00051

$$$$
>  <variant-notation>
A33U G37U

>  <relation-operator>
<

>  <kcat, s⁻¹>
1e-05

$$$$
>  <variant-notation>
U47G A48C

>  <relation-operator>
=

>  <kcat, s⁻¹>
0.000154

$$$$
>  <variant-notation>
C16A G66C

>  <relation-operator>
=

>  <kcat, s⁻¹>
6.9e-05

$$$$
>  <variant-notation>
A14C C71A

>  <relation-operator>
=

>  <kcat, s⁻¹>
0.00106

$$$$
>  <variant-notation>
A14G U47C

>  <relation-operator>
=

>  <kcat, s⁻¹>
0.00925

$$$$
>  <variant-notation>
G32C

>  <relation-operator>
=

>  <kcat, s⁻¹>
0.000139

$$$$
>  <variant-notation>
U57G C71U

>  <relation-operator>
=

>  <kcat, s⁻¹>
6.07e-05

$$$$
>  <variant-notation>
U54A G59A

>  <relation-operator>
=

>  <kcat, s⁻¹>
6.69e-05

$$$$
>  <variant-notation>
A14U U56A

>  <relation-operator>
=

>  <kcat, s⁻¹>
0.00382

$$$$
>  <variant-notation>
A12G C68A

>  <relation-operator>
=

>  <kcat, s⁻¹>
2.58e-05

$$$$
>  <variant-notation>
A48U U49G

>  <relation-operator>
=

>  <kcat, s⁻¹>
1.55e-05

$$$$
>  <variant-notation>
A14C U30A

>  <relation-operator>
=

>  <kcat, s⁻¹>
0.00104

$$$$
>  <variant-notation>
G13A C16U

>  <relation-operator>
=

>  <kcat, s⁻¹>
0.000763

$$$$
>  <variant-notation>
C11G A39U

>  <relation-operator>
<

>  <kcat, s⁻¹>
1e-05

$$$$
>  <variant-notation>
A39C A64U

>  <relation-operator>
=

>  <kcat, s⁻¹>
1.4e-05

$$$$
>  <variant-notation>
G59U

>  <relation-operator>
=

>  <kcat, s⁻¹>
5.77e-05

$$$$
>  <variant-notation>
C61A C67U

>  <relation-operator>
=

>  <kcat, s⁻¹>
4.47e-05

$$$$
>  <variant-notation>
G43A C68A

>  <relation-operator>
=

>  <kcat, s⁻¹>
2.1e-05

$$$$
>  <variant-notation>
A52U U57G

>  <relation-operator>
=

>  <kcat, s⁻¹>
5.28e-05

$$$$
>  <variant-notation>
G41C U54C

>  <relation-operator>
=

>  <kcat, s⁻¹>
0.000229

$$$$
>  <variant-notation>
G7U C16A G37A A53U C71A

>  <relation-operator>
=

>  <kcat, s⁻¹>
1.25e-05

$$$$

Origin of the recorded values: the supplement of paper PMC7125110
